- TESTED_TARGET: Bcl-2-like protein 2 (Homo sapiens, UniProt Q92843)
- Sequence (Q92843 whole entry): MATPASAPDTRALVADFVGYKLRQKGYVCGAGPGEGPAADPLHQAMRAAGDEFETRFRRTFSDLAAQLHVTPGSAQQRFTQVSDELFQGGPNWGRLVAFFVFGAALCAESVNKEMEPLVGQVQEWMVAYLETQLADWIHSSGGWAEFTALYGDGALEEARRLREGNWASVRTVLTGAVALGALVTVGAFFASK
MEASUREMENT_NAME: IC50

QUERY: Param item = `CCOC(=O)CS(=O)(=O)c1nc(-c2ccc(F)cc2)cc(C(F)(F)F)n1` ; retrieve measured IC50.
RESULT: > 100 µM
